Biological target: TTX resistant Na channel of human SNS-expressing cell (SNS) (Homo sapiens, UniProt Q9Y5Y9)
Sequence (Q9Y5Y9 whole entry, looked up): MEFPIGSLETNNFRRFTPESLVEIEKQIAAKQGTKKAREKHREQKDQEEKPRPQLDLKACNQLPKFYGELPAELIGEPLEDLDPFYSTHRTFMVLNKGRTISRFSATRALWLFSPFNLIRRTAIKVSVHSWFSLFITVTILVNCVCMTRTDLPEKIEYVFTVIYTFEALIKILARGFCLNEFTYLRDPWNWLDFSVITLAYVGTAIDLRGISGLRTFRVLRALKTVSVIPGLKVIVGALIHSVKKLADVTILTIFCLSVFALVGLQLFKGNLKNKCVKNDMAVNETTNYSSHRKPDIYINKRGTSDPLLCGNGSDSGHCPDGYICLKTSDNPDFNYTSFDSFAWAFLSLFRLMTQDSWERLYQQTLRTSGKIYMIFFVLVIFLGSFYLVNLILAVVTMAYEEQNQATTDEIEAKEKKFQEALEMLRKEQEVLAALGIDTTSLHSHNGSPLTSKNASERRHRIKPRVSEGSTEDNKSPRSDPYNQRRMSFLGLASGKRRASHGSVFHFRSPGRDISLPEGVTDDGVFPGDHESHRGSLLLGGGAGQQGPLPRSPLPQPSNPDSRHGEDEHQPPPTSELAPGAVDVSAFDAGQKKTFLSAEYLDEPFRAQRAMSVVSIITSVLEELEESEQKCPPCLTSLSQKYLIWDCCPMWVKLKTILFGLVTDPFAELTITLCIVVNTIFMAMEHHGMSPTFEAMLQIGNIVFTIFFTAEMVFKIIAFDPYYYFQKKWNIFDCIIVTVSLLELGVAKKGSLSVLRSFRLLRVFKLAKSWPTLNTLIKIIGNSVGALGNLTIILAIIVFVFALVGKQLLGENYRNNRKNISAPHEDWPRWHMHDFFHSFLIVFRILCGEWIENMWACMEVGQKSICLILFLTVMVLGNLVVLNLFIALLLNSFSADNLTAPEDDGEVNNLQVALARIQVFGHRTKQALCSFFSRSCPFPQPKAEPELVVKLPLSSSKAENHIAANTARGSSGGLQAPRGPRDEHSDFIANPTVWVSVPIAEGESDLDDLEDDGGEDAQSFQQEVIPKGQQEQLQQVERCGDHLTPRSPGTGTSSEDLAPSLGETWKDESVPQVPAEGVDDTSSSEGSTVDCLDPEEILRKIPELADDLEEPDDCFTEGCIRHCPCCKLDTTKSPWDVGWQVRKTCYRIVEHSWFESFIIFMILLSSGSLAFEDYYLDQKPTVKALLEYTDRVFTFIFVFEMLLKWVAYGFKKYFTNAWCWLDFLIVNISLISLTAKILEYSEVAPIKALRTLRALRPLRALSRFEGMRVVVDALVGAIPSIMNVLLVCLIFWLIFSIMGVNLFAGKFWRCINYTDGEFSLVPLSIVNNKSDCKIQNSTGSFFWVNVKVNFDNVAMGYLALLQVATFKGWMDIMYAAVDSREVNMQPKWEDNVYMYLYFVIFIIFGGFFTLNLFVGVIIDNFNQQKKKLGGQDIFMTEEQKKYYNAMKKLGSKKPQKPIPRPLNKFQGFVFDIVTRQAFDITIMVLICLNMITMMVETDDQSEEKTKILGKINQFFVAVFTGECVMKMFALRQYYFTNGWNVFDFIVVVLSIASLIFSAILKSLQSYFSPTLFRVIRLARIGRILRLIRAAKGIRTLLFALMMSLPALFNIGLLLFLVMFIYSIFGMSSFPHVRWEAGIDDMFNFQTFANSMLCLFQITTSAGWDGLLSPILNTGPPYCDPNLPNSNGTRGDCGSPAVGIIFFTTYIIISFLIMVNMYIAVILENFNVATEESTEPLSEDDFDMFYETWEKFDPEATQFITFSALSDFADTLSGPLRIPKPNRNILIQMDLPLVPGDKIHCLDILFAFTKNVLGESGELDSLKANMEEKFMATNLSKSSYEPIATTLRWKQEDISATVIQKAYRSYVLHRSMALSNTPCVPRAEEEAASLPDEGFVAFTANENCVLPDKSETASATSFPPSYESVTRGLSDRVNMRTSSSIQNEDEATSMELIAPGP
Test: cell-based
Conditions: CHO-K1, compound concentration 12.5 μM; read-out: SNS inhibitory rate (%)
Note to self: values exactly at 80% are T. So inhibition at 12.5 µM at or above 80% is T, below is F.

{"line-notation": "C[C@H](NCc1nc2ccc(Oc3ccc(OC(F)(F)F)cc3)cc2n1CC(C)(C)O)C(N)=O", "class-name": "T"}
{"line-notation": "CCOCCn1c(CN[C@@H](C)C(N)=O)nc2cc(F)c(-c3ccc(Cl)cc3)cc21", "class-name": "F"}
{"line-notation": "CCOCCn1c(CN[C@@H](C)C(=O)N2CCOCC2)nc2ccc(Oc3ccc(F)cc3)cc21", "class-name": "T"}
{"line-notation": "CCOCCn1c(CN[C@@H](C)C(N)=O)nc2cc(F)c(-c3ccc(F)c(C)c3)cc21", "class-name": "T"}
{"line-notation": "C[C@H](NCc1nc2ccc(Oc3ccc(F)cc3)cc2n1C1CCN(S(C)(=O)=O)CC1)C(N)=O", "class-name": "F"}

Entry CCOCCn1c(CN[C@@H](C)C(N)=O)nc2ccc(-c3ccc(C)c(F)c3)cc21 : is its inhibition at 12.5 µM no less than 80%?
F

For CCOCCn1c(CN[C@@H](C)C(N)=O)nc2ccc(Oc3ccc(C)cc3)cc21 then?
F

Follow-up entry: CCOCCn1c(CN[C@@H](C)C(=O)NCCOC)nc2ccc(Oc3ccc(F)cc3)cc21
T

====

Target: TTX resistant Na channel of human SNS-expressing cell (SNS) (Homo sapiens)
Assay: cell-based
Details: CHO-K1, compound concentration 12.5 μM; read-out: SNS inhibitory rate (%)
// No strictly below 90% in inhibition at 12.5 µM; Yes otherwise

Threshold query (inhibition at 12.5 µM >= 90%) on CC(C)(NCc1nc2ccc(Oc3ccc(F)cc3)cc2n1CCO)C(N)=O
No

CCOCCn1c(CNC(C)(C)C(N)=O)nc2ccc(-c3ccc(C)cc3F)cc21 ?
No

Then CCOCCn1c(CN[C@@H](C)C(N)=O)nc2ccc(Oc3ccc(F)cc3F)cc21 ?
Yes

// same read-out, input: CCOCCn1c(CN[C@@H](CC)C(N)=O)nc2ccc(Oc3ccc(F)cc3)cc21
Yes

Moving on to CCOCCn1c(CN[C@@H](C)C(N)=O)nc2ccc(Oc3ccc(F)c(F)c3)cc21
Yes

Again, but for C[C@H](NCc1nc2ccc(Oc3ccc(F)cc3F)cc2n1C[C@@H]1CCCO1)C(N)=O
Yes

Then what about the compound CCOCCn1c(CNC(C)(C)C(N)=O)nc2ccc(-c3ccc(C)cc3C)cc21 ?
Yes

====

Molecular target: TTX resistant Na channel of human SNS-expressing cell (SNS) (Homo sapiens, UniProt Q9Y5Y9)
Assay: cell-based
Conditions: CHO-K1, compound concentration 12.5 μM; read-out: SNS inhibitory rate (%)
outcome-measure: inhibition at 12.5 µM (%)
Your answer is read as %, so omit the unit and give the number.

{"molecule": "CC(C)(NCc1nc2ccc(Oc3ccccc3)cc2n1C1CCC1)C(N)=O [Example 33]", "measurement": 32.9}

State the recorded inhibition at 12.5 µM for this entry: COCCn1c(CNC(C)(C)C(N)=O)nc2ccc(Oc3ccc(F)cc3)cc21 [Example 91]
76.4

And C[C@H](NCc1nc2ccc(Oc3ccc(OC(F)(F)F)cc3)cc2n1C1CC1)C(N)=O [Example 100] ?
72.1

Here is the next molecule: CCOCCn1c(CN[C@@H](C)C(N)=O)nc2ccc(-c3ccc(C)cc3C)cc21 [Example 159]
96.1

====

inhibition at 12.5 µM overview
Molecular target: TTX resistant Na channel of human SNS-expressing cell (SNS) (Homo sapiens)
Assay: cell-based
Conditions: CHO-K1, compound concentration 12.5 μM; read-out: SNS inhibitory rate (%)
Counter-ions that a name gives are not always drawn.
Give your result in % as a bare value.

Would you please look over these solved cases?
{"compound": "CCn1c(CNC(C)(C)C(N)=O)nc2ccc(-c3ccc(F)cc3)cc21 [Example 154]", "unit-symbol": "%", "inhibition at 12.5 µM": 11.2}
{"compound": "CCOCCn1c(CN[C@@H](C)C(N)=O)nc2ccc(-c3ccccc3)cc21 [Example 69]", "unit-symbol": "%", "inhibition at 12.5 µM": 22.3}
{"compound": "C[C@H](NCc1nc2ccc(Oc3ccc(OC(F)(F)F)cc3)cc2n1C[C@H]1CCCO1)C(N)=O [Example 132]", "unit-symbol": "%", "inhibition at 12.5 µM": 86.4}
{"compound": "CCOCCn1c(CNC(C)(C)C(N)=O)nc2ccc(-c3ccc(F)c(C)c3)cc21 [Example 168]", "unit-symbol": "%", "inhibition at 12.5 µM": 20.2}
{"compound": "COCCCn1c(CN[C@@H](C)C(N)=O)nc2ccc(Oc3ccccc3)cc21 [Example 24]", "unit-symbol": "%", "inhibition at 12.5 µM": 5.8}
{"compound": "CCOCCn1c(CN[C@H](C(N)=O)C(C)C)nc2ccc(Oc3ccc(F)cc3)cc21 [Example 4]", "unit-symbol": "%", "inhibition at 12.5 µM": 66.8}
{"compound": "CCn1c(CNC(C)(C)C(N)=O)nc2ccc(Oc3ccc(F)cc3)cc21 [Example 138]", "unit-symbol": "%", "inhibition at 12.5 µM": 93.1}
{"compound": "Cc1ccc(Oc2ccc3nc(CNC(C)(C)C(N)=O)n(C4CCOCC4)c3c2)cc1 [Example 140]", "unit-symbol": "%", "inhibition at 12.5 µM": 97.5}

Look at this compound and give its reported inhibition at 12.5 µM. CCOCCn1c(CN[C@@H](C)C(N)=O)nc2ccc(-c3ccc(F)cc3OC)cc21 [Example 172]
50.9

Request: CCOCCn1c(CN[C@@H](C)C(N)=O)nc2ccc(-c3cccc(C)c3)cc21 [Example 152]
8.9

Try the compound CCOCCn1c(CN[C@@H](C)C(N)=O)nc2cc(-c3ccc(Cl)cc3)ccc21 [Example 191, hydrochloride]
23.3

Okay, and CCOCCn1c(CN(C)CC(N)=O)nc2ccc(Oc3ccccc3)cc21 [Example 40] ?
95.8

Request: CCOCCn1c(CN[C@@H](CC)C(N)=O)nc2ccc(Oc3ccccc3)cc21 [Example 37]
42.3

Also, C[C@H](NCc1nc2ccc(Oc3ccc(F)cc3F)cc2n1C[C@H]1CCCO1)C(N)=O [Example 125] please.
95.9

Follow-up item: CCOCCn1c(CN[C@@H](C)C(N)=O)nc2ccc(-c3ccc(F)cc3)cc21 [Example 68]
16

Quick one: CCOCCn1c(CN[C@@H](C)C(N)=O)nc2ccc(Oc3cccc(F)c3)cc21 [Example 53]
94

Moving on to the next compound: CCOCCn1c(CN[C@@H](C)C(N)=O)nc2cc(F)c(-c3ccc(C)c(F)c3)cc21 [Example 189]
97.7

What do we get for CCOCCn1c(CN[C@@H](C)C(N)=O)nc2cc(-c3ccc(OC)cc3)ccc21 [Example 192, trifluoroacetate] ?
11.9

Follow-up item: Cc1ccc(Oc2ccc3nc(CN[C@@H](C)C(N)=O)n(CC(C)(C)O)c3c2)cc1 [Example 101]
85.2

Same for CCOCCn1c(CN[C@@H](C)C(N)=O)nc2ccc(-c3ccc(C)cc3)nc21 [Example 209, hydrochloride]
6.5

# repeat for CCOCCn1c(CNC(C)(C)C(N)=O)nc2ccc(-c3ccc(F)cc3OC)cc21 [Example 174]
33.4

Note, next up: COCCCn1c(CN[C@@H](C)C(N)=O)nc2ccc(Oc3ccc(F)cc3F)cc21 [Example 123]
96.8

Try the compound CCOCCn1c(CN[C@@H](C)C(N)=O)nc2ccc(-c3c(C)cc(C)cc3C)cc21 [Example 164]
3.7

Entry NC(=O)CNCc1nc2ccc(Oc3ccccc3)cc2n1C1CCC1 [Example 12] please
17

Lookup CCOCCn1c(CNC(C)(C)C(N)=O)nc2ccc(-c3ccc(F)cc3Cl)cc21 [Example 156]
71.2

====

Target: TTX resistant Na channel of human SNS-expressing cell (SNS) (Homo sapiens)
Experiment: cell-based
Conditions: CHO-K1, compound concentration 12.5 μM; read-out: SNS inhibitory rate (%)
outcome-measure: inhibition at 12.5 µM
Please answer using the number first and the unit second.

Worked examples follow.
{"compound": "Cc1ccc(Oc2ccc3nc(CN[C@@H](C)C(N)=O)n(C[C@H]4CCCO4)c3c2)cc1 [Example 131]", "inhibition at 12.5 µM": "55.9%"}
{"compound": "CCOCCn1c(CN[C@@H](C)C(N)=O)nc2ccc(Oc3ccc(OC(F)(F)F)cc3)cc21 [Example 43]", "inhibition at 12.5 µM": "61%"}
{"compound": "C[C@H](NCc1nc2ccc(Oc3ccc(F)cc3)cc2n1C1CC1)C(N)=O [Example 7]", "inhibition at 12.5 µM": "83.1%"}

With those in mind, consider the next compound.
For the compound C[C@H](NCc1nc2ccc(Oc3ccc(F)c(F)c3)cc2n1C[C@H]1CCCO1)C(N)=O [Example 124] , what inhibition at 12.5 µM is on record?
87.8%
